molecular target: Human recombinant enteropeptidase (Homo sapiens); construct: purchased ITSI-Biosciences, LLC #REN-260; test: Human enteropeptidase inhibitory activity; assay type: biochemical; settings: 3.3 uM test compound; fluorescence intensity 2 hours after start of reaction; read-out: Inhibition rate at 3.3 uM (%)
Sequence (P98073 whole entry): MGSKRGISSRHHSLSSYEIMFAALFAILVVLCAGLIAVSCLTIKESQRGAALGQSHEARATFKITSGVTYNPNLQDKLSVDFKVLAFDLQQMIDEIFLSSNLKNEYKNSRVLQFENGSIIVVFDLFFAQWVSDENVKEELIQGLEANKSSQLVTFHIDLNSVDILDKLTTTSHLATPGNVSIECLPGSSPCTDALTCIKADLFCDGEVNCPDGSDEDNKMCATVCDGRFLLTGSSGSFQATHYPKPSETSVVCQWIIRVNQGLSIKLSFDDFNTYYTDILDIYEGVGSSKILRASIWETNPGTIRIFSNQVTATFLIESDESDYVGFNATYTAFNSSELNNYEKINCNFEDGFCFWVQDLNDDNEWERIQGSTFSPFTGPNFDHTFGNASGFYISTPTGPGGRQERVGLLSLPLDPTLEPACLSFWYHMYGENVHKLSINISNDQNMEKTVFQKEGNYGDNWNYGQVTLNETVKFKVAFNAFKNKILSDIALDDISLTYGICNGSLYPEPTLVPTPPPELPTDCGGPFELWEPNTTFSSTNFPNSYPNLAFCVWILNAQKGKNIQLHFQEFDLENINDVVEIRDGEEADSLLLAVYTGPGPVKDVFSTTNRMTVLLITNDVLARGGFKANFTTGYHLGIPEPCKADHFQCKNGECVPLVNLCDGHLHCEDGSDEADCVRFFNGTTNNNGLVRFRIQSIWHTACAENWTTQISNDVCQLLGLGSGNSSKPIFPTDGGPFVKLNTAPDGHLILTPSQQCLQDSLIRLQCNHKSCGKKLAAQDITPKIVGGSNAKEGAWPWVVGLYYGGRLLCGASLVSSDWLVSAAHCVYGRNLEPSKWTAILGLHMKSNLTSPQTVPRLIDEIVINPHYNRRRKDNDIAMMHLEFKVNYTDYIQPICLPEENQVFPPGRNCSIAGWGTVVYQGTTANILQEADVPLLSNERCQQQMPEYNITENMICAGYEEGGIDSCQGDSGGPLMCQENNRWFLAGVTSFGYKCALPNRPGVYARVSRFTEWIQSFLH
Structures can show the parent of a compound that is named as a salt.
MEASURED QUANTITY: inhibition at 3.3 µM (%)

N=C(N)Nc1ccc(C(=O)Oc2ccc(CCC(=O)NCCC(=O)O)c(C3=NOC(CC(=O)O)(CC(=O)O)C3)c2)cc1    100
Cc1cc(OC(=O)c2ccc(NC(=N)N)cc2)cc(C2=NOC(CC(=O)O)(C(=O)O)C2)c1 (stereo not shown) [Example 11, trifluoroacetate]    100
N=C(N)Nc1ccc(C(=O)Oc2cccc(C3=NOC(CCC(=O)O)(CCC(=O)O)C3)c2)cc1    101
N=C(N)Nc1ccc(C(=O)Oc2ccc(C3CCN(C(=O)CCC(=O)O)CC3)c(C3=NOC(CC(=O)O)(CC(=O)O)C3)c2)cc1 [Example 7, trifluoroacetate]    101
N=C(N)Nc1ccc(C(=O)Oc2cccc(C3=NO[C@@](CC(=O)O)(C(=O)O)C3)c2)cc1    101
CN(CC(=O)O)C(=O)CCc1ccc(OC(=O)c2ccc(NC(=N)N)cc2)cc1C1=NOC(CC(=O)O)(CC(=O)O)C1    100
N=C(N)Nc1ccc(C(=O)Oc2ccc(CCC(=O)O)c(C3=NOC(CC(=O)O)(C(=O)O)C3)c2)cc1 (stereo not shown)    101

* * *

target: Human recombinant enteropeptidase (Homo sapiens); construct: purchased ITSI-Biosciences, LLC #REN-260; assay: Human enteropeptidase inhibitory activity; assay type: biochemical; settings: 3.3 uM test compound; fluorescence intensity 2 hours after start of reaction; read-out: Inhibition rate at 3.3 uM (%)
Where a name gives a salt, the structure may show the parent alone.
MEASURED QUANTITY: inhibition at 3.3 µM (%)

N=C(N)Nc1ccc(C(=O)Oc2cccc(C3=NOC(CC(=O)O)(CC(=O)O)C3)c2)cc1 [Example 6]    100
CC(C)(C)C1CCC(c2cc(OC(=O)c3ccc(NC(=N)N)cc3)cc(C3=NOC(CC(=O)O)(C(=O)O)C3)c2)CC1 (stereo not shown) [Example 12]    101
N=C(N)Nc1ccc(C(=O)Oc2ccc(C3CCCCC3)c(C3=NOC(CC(=O)O)(C(=O)O)C3)c2)cc1 (stereo not shown) [Example 8, trifluoroacetate]    101
N=C(N)Nc1ccc(C(=O)Oc2ccc(CCC(=O)N3CCS(=O)(=O)CC3)c(C3=NOC(CC(=O)O)(CC(=O)O)C3)c2)cc1 [Example 25]    100
N=C(N)Nc1ccc(C(=O)Oc2cc(CCC(=O)N[C@@H](CC(=O)O)C(=O)O)cc(C3=NOC(CC(=O)O)(C(=O)O)C3)c2)cc1 (stereo partly shown) [Example 19]    101
N=C(N)Nc1ccc(C(=O)Oc2ccc(CCC(=O)N[C@@H](CC(N)=O)C(=O)O)c(C3=NOC(CC(=O)O)(CC(=O)O)C3)c2)cc1 [Example 28]    100
N=C(N)Nc1ccc(C(=O)Oc2ccc(CCC(=O)NCC(=O)O)c(C3=NOC(CC(=O)O)(CC(=O)O)C3)c2)cc1 [Example 30]    100
CC(C)(C)C1CCC(c2ccc(OC(=O)c3ccc(NC(=N)N)cc3)cc2C2=NOC(CC(=O)O)(C(=O)O)C2)CC1 (stereo not shown) [Example 10]    101
N=C(N)Nc1ccc(C(=O)Oc2ccc(CCC(=O)N3CCC(C(=O)O)CC3)c(C3=NOC(CC(=O)O)(CC(=O)O)C3)c2)cc1 [Example 33]    100
N=C(N)Nc1ccc(C(=O)Oc2ccc(CCC(=O)N[C@@H](CC(=O)O)C(=O)O)c(C3=NOC(CC(=O)O)(CC(=O)O)C3)c2)cc1 [Example 20]    100
N=C(N)Nc1ccc(C(=O)Oc2ccc(CCC(=O)N[C@@H](CCC(N)=O)C(=O)O)c(C3=NOC(CC(=O)O)(CC(=O)O)C3)c2)cc1 [Example 29]    100
N=C(N)Nc1ccc(C(=O)Oc2cccc(C3=NO[C@](CC(=O)O)(C(=O)O)C3)c2)cc1 [Example 1]    101
N=C(N)Nc1ccc(C(=O)Oc2cc(CCC(=O)O)cc(C3=NOC(CC(=O)O)(C(=O)O)C3)c2)cc1 (stereo not shown) [Example 14, trifluoroacetate]    100

Source of measurements: patent US10023544B2
